# System Under Test: CFTR (Homo sapiens)
# Experiment: Membrane Potential Dye, Enteroid Assay B
# Assay type: cell-based
# Test Conditions: read-out: Ent. B EC50
pEC50: −log10 of the molar value.
Reported pEC50 values are given for each entry in this list.

CC(=O)N1CCC2(CC1)CC(N1C(=O)c3cccc(c3)S(=O)(=O)Nc3nc(cc(-c4c(C)cccc4C)n3)OC[C@H]1CC(C)C)C2 [Compound 16] ... > 6.00
Cc1cccc(C)c1-c1cc2nc(n1)NS(=O)(=O)c1cccc(c1)C(=O)N(C1CN(C(C)C)C1)[C@H](CC(C)C)CO2 [Compound 319] ... > 6.00

pEC50 in this record for COC(=O)N[C@H]1CC2(C1)C[C@H](N1C(=O)c3cccc(c3)S(=O)(=O)Nc3nc(cc(-c4c(C)cccc4C)n3)OC[C@H]1CC(C)C)C2 (stereo partly drawn) [Compound 305] : > 6.00

* * *

# System Under Test: CFTR (Homo sapiens, UniProt P13569)
# Sequence (P13569 with tags, fused parts or gaps DEL508-508): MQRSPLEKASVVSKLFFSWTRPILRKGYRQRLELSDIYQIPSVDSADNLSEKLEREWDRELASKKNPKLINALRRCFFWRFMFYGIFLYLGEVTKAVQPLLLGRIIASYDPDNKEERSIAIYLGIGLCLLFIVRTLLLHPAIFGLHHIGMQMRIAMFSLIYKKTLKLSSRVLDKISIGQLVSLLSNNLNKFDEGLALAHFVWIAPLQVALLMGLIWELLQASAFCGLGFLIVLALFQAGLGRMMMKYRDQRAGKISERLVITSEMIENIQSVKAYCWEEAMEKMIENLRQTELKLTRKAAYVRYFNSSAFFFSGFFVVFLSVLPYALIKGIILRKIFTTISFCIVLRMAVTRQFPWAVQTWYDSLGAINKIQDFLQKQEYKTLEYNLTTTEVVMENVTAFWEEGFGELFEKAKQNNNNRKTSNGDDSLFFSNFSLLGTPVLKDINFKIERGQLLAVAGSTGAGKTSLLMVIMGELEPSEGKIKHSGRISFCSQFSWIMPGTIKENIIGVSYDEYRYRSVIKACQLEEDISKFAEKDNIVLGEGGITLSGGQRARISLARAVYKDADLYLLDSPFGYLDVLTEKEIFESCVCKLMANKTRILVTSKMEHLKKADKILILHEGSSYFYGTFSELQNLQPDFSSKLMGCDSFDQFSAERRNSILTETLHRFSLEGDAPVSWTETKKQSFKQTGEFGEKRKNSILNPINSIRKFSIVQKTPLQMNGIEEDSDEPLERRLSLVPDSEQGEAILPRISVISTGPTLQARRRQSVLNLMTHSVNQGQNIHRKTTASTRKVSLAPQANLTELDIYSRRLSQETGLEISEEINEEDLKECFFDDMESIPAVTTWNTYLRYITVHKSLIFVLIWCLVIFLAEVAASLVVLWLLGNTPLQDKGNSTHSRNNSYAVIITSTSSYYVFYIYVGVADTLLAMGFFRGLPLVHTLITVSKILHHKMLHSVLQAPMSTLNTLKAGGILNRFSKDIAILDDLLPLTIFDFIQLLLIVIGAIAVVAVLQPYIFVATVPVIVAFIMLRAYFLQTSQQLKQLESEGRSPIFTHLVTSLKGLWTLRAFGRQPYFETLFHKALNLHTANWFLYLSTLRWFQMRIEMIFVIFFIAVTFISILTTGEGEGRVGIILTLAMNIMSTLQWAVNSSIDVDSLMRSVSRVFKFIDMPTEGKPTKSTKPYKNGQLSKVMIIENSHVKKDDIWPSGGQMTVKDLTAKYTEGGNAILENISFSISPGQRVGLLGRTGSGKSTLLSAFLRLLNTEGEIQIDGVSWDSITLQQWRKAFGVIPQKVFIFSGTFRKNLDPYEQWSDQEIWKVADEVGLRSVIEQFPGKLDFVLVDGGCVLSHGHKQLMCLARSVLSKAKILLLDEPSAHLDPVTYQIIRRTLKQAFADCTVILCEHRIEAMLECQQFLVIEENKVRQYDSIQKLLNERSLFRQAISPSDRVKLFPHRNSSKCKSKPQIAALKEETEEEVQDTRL
# Experiment: Membrane Potential Dye, Enteroid Assay A
# Format: cell-based
Readout Type: Ent. A Max Activity (%)

Cc1cccc(C)c1-c1cc2nc(n1)NS(=O)(=O)c1cccc(c1)C(=O)N(C1CC3(CCN(C)CC3)C1)C(CC1(C(F)(F)F)CC1)CO2 (single isomer, unassigned) [Compound 136] ... +++ (+++ is >60%)
Cc1cccc(C)c1-c1cc2nc(n1)NS(=O)(=O)c1cccc(c1)C(=O)N(C1CC3(CCN(CCF)CC3)C1)[C@H](CC(C)C)CO2 [Compound 321] ... +++ (+++ is >60%)

* * *

# System Under Test: CFTR (Homo sapiens)
# Experiment: Membrane Potential Dye, Enteroid Assay B
# Format: cell-based
Readout Type: Ent. B Max Activity (%)

Some solved cases for reference:
Cc1cccc(C)c1-c1cc2nc(n1)NS(=O)(=O)c1cncc(n1)C(=O)N(C1CC3(CC3)C1)[C@H](CC(C)C)CO2 [Compound 62] ... +++ (+++ is >60%)
Cc1cccc(C)c1-c1cc2nc(n1)NS(=O)(=O)c1cccc(n1)C(=O)N(C1CC3(CCNCC3)C1)[C@H](CC(C)C)CO2 [Compound 392] ... +++ (+++ is >60%)
CNC(=O)[C@H]1CC2(C1)C[C@H](N1C(=O)c3cccc(c3)S(=O)(=O)Nc3nc(cc(-c4c(C)cccc4C)n3)OC[C@H]1CC(C)C)C2 (stereo in doubt) [Compound 346] ... +++ (+++ is >60%)
Cc1cccc(C)c1-c1cc2nc(n1)NS(=O)(=O)c1cccc(n1)C(=O)N(C1CC3(CC3)C1)[C@H](CC(C)(C)C)CO2 [Compound 401] ... +++ (+++ is >60%)
Cc1cccc(C)c1-c1cc2nc(n1)NS(=O)(=O)c1cccc(c1)C(=O)N([C@H]1CC3(C[C@H](N(C)C)C3)C1)[C@H](CC(C)C)CO2 (stereo partly drawn) [Compound 313] ... +++ (+++ is >60%)

Ent. B Max Activity (%) in this record for [H][C@]1(N2C(=O)c3cccc(c3)S(=O)(=O)Nc3nc(cc(-c4c(C)cccc4C)n3)OC[C@H]2CC2(C(F)(F)F)CC2)C[C@@]2(C[C@H](NC(=O)OC(C)C)C2)C1 (stereo partly drawn) [Compound 78] : +++ (+++ is >60%)

Ent. B Max Activity (%) in this record for Cc1cccc(C)c1-c1cc2nc(n1)NS(=O)(=O)c1cccc(c1)C(=O)N(C1CC3(CCN(CCOC(F)(F)F)CC3)C1)[C@H](CC(C)C)CO2 [Compound 299] : +++ (+++ is >60%)

Ent. B Max Activity (%) in this record for COC1CC(N2C(=O)c3cccc(c3)S(=O)(=O)Nc3nc(cc(-c4c(C)cccc4C)n3)OC[C@H]2CC(C)C)C1 (stereo partly drawn) [Compound 467] : +++ (+++ is >60%)

Ent. B Max Activity (%) in this record for Cc1cccc(C)c1-c1cc2nc(n1)NS(=O)(=O)c1cccc(c1)C(=O)N(C1CC3(CCN(C(=O)OC(C)C)CC3)C1)[C@H](CC1(C(F)(F)F)CC1)CO2 [Compound 464] : +++ (+++ is >60%)

Ent. B Max Activity (%) in this record for COC1CC(N2C(=O)c3cccc(c3)S(=O)(=O)Nc3nc(cc(-c4c(C)cccc4C)n3)OC[C@H]2CC2(C(F)(F)F)CC2)C1 (stereo in doubt) [Compound 466] : +++ (+++ is >60%)

Ent. B Max Activity (%) in this record for Cc1cccc(C)c1-c1cc2nc(n1)NS(=O)(=O)c1cccc(c1)C(=O)N([C@H]1C[C@@H](C#N)C1)[C@H](CC(C)C)CO2 (stereo in doubt) [Compound 469] : +++ (+++ is >60%)

Ent. B Max Activity (%) in this record for Cc1cccc(C)c1-c1cc2nc(n1)NS(=O)(=O)c1cccc(c1)C(=O)N(C1CC3(CC(N)C3)C1)[C@H](CC(C)(C)C)CO2 (single isomer, unassigned) [Compound 118] : +++ (+++ is >60%)

Ent. B Max Activity (%) in this record for COC1(C)CCN(C(=O)C2CC(N3C(=O)c4cccc(c4)S(=O)(=O)Nc4nc(cc(-c5c(C)cccc5C)n4)OC[C@H]3CC(C)C)C2)CC1 (stereo partly drawn) [Compound 309] : +++ (+++ is >60%)

* * *

# System Under Test: CFTR (Homo sapiens)
# Experiment: Membrane Potential Dye, Enteroid Assay A
# Type: cell-based
Readout Type: Ent. A Max Activity (%)

Cc1cccc(C)c1-c1cc2nc(n1)NS(=O)(=O)c1cccc(c1)C(=O)N([C@H]1C[C@]3(CCN(C(C)C)C3)C1)[C@H](CC(C)C)CO2 (single isomer, unassigned) [Compound 34] ... +++ (+++ is >60%)
CC(C)C[C@@H]1COc2cc(C3CCCCC3(C)C)nc(n2)NS(=O)(=O)c2cccc(c2)C(=O)N1C1CC2(CCNCC2)C1 (stereo partly shown) ... +++ (+++ is >60%)
Cc1cccc(C)c1-c1cc2nc(n1)NS(=O)(=O)c1cccc(c1)C(=O)N([C@H]1C[C@@H](C#N)C1)[C@H](CC(C)C)CO2 (stereo in doubt) ... +++ (+++ is >60%)

* * *

# System Under Test: CFTR (Homo sapiens)
# Experiment: Membrane Potential Dye, Enteroid Assay B
# Assay type: cell-based
# Test Conditions: Table 10
Readout Type: Ent. B Max Activity (%)

Some solved cases for reference:
CCC(O)(CC)[C@H]1CC2(C[C@H](N3C(=O)c4cccc(c4)S(=O)(=O)Nc4nc(cc(-c5c(C)cccc5C)n4)OC[C@H]3CC(C)(C)C)C2)C1 (some centres unmarked) [Compound 409] ... +++ (+++ is >60%)
Cc1cccc(C)c1-c1cc2nc(n1)NS(=O)(=O)c1cccc(c1)C(=O)N(C1CC3(C1)CC(C)(O)C3)[C@H](CC(C)(C)C)CO2 (single isomer, unassigned) [Compound 120] ... ++ (++ is 30-60%)
Cc1cccc(C)c1-c1cc2nc(n1)NS(=O)(=O)c1cccc(c1)C(=O)N(C1CC(N(C)C)C1)[C@H](CC1(C(F)(F)F)CC1)CO2 (single isomer, unassigned) ... +++ (+++ is >60%)
CCC(=O)NC1(C)CC(N2C(=O)c3cccc(c3)S(=O)(=O)Nc3nc(cc(-c4c(C)cccc4C)n3)OCC2CC(C)(C)C)C1 (centres unmarked) ... +++ (+++ is >60%)
Cc1cccc(C)c1-c1cc2nc(n1)NS(=O)(=O)c1cccc(c1)C(=O)N([C@H]1C[C@](C)(NC(=O)OC(C)C)C1)[C@H](CC(C)(C)C)CO2 (stereo in doubt) [Compound 244] ... ++ (++ is 30-60%)
Cc1cccc(C)c1-c1cc2nc(n1)NS(=O)(=O)c1cccc(c1)C(=O)N([C@H]1C[C@@]3(C[C@H](NC(=O)C(C)C)C3)C1)[C@H](CC1(C(F)(F)F)CC1)CO2 (some centres unmarked) ... +++ (+++ is >60%)

Attention now turns to another entry.
Summary: Cc1cccc(C)c1-c1cc2nc(n1)NS(=O)(=O)c1cccc(c1)C(=O)N(C1CC3(CCNC(=O)C3)C1)[C@H](CC(C)C)CO2 (some centres unmarked) [Compound 201] , CFTR (Homo sapiens), Ent. B Max Activity (%) = ++ (++ is 30-60%)
